system: LOX IMVI melanoma; experiment: NCI-60 one-dose screen, 48 h (100 = growth as untreated, 0 = no growth, -100 = all killed); settings: 10 µM
This is part of a sample that, as a whole, favours compounds with a hit. Of some 83,000 tested, about 20% had one in any assay.
ENDPOINT: growth (%)

CCN1CCN(Cc2ccc(NC(=O)c3cccc(-n4cc(-c5ccc(NC(C)=O)nc5)nn4)c3)cc2C(F)(F)F)CC1    72.4
O=C1N/C(=N\c2nccs2)S/C1=C\c1cccs1    8.62
Cc1ccc(C(=O)NCCCNc2nc(Nc3ccc(N4CCN(C)CC4)cc3)nc3ccsc23)cc1    -22.6
Cc1ccc2nc(COc3ccc(C(=O)NNC(=S)NCCc4ccccc4)cc3)[nH]c2c1    79.9
OCCNc1oc(-c2ccccc2)nc1[P+](c1ccccc1)(c1ccccc1)c1ccccc1    2.03

----------
tested on: SNB-75 CNS; assay: NCI-60 one-dose screen, 48 h; conditions: 10 µM
About 83,000 compounds went through this panel and 20% of them were active in at least one assay; those are over-represented in the sample as a whole. Activity calls are given as the source filed them. How the source made its calls: active means growth percent below 10; inactive means the rest.
Labels: active, inactive

CC(=C(c1ccc(OCCCN(C)C)cc1)c1ccc(OCCCN(C)C)cc1)c1ccccc1    active
O=C(Nc1ccc(I)cc1)Nc1nc2ccc([N+](=O)[O-])cc2s1    active
COc1cc(-c2nc3cc(Cl)c(Cl)cc3[nH]2)ccc1OCc1nnc(-c2ccc(Br)cc2)o1    active
N#Cc1ccc(-c2nn(-c3ccc(C(=O)O)cc3)cc2CNc2cccc(Br)c2)cc1    inactive
N#Cc1c(-c2ccc(F)cc2)nc(SCc2ccc([N+](=O)[O-])cc2)nc1N1CCOCC1    active

----------
system: SF-268 CNS; assay: NCI-60 one-dose screen, 48 h; settings: 10 µM
This is part of a sample that, as a whole, favours compounds with a hit. Of some 83,000 tested, about 20% had one in any assay. Calls of active or inactive are those of the source. Rule for the calls: active = growth percent below 10; inactive = the rest.
Labels: active, inactive

N#Cc1c(NC(=O)c2ccc(C(O)(C(F)(F)F)C(F)(F)F)cc2)sc2c1CCC(=O)C2    active
CN(CCO)c1oc(-c2ccccc2)nc1[P+](c1ccccc1)(c1ccccc1)c1ccccc1    inactive
O=C(Nc1nc2ccc([N+](=O)[O-])cc2s1)Nc1cc(Cl)ccc1I    active
O=C(CSc1ccc(-c2ccc(Cl)cc2)nn1)Nc1ccc(Cl)c(C(F)(F)F)c1    inactive
O=C(NO)c1ccc(CNC(=O)[C@H]2Cc3c([nH]c4ccccc34)[C@H](c3ccc(Cl)cc3)N2)cc1    inactive
Cc1cccc(-c2nc(Nc3ccccc3C(=O)O)c3ccccc3n2)c1    inactive
O=C(NO)c1ccc(CNC(=O)[C@H]2Cc3c([nH]c4ccccc34)[C@H](c3ccccc3)N2)cc1    inactive
N#Cc1ccc(-c2nn(-c3ccc(C(=O)O)cc3)cc2CNc2ccc(Cl)cc2)cc1    inactive
CCN1CCN(Cc2ccc(NC(=O)c3cccc(-n4cc(-c5ccc(NC(C)=O)nc5)nn4)c3)cc2C(F)(F)F)CC1    inactive
COc1ccc(CN2[C@@H](C(=O)NCc3ccc(C(=O)NO)cc3)Cc3c([nH]c4ccccc34)[C@@H]2C)cc1    inactive
O=C(c1ccc(Cl)cc1)C1[C@H](c2ccccc2Br)[C@@H](c2ccccc2)NC12C(=O)Nc1ccccc12 (stereo partly specified)    inactive
COc1cc(NC(=O)CSc2nnc(-c3ccc4nc(-c5ccc(Cl)cc5)[nH]c4c3)o2)cc(OC)c1OC    inactive
COc1ccc(-c2nc(-c3ccccc3)c(-c3ccccc3)n2-c2ccc(S(=O)(=O)Nc3ncccn3)cc2)cc1OC    inactive
COc1ccc(C2N(c3ccc(Br)cc3)N=C(C(C)=O)N2[C@H]2[C@H](OC(C)=O)O[C@H](COC(C)=O)[C@@H](OC(C)=O)[C@@H]2OC(C)=O)cc1 (stereo partly specified)    inactive
Cc1ccn2c(C(=O)c3ccc(Br)cc3)cc(-c3cc(-c4ccc(N(C)C)cc4)c(C#N)c(N)n3)c2c1    inactive
N#Cc1c(NC(=O)c2ccc(C(F)(F)F)cc2C(F)(F)F)sc2c1CCC(=O)C2    inactive
COc1cc(Cn2c(C(F)(F)F)cc3c(Cl)ncnc32)ccn1    active
COc1ccc(C=CC(=O)c2ccc(-n3c(C)nc4c(cnn4-c4ccccc4)c3=O)cc2)cc1    inactive
O=C(N=Nc1c(O)[nH]c2ccc(Br)cc12)c1ccc2nc(-c3ccccc3)[nH]c2c1    active
COc1ccc(-c2c(N)c(=O)n(C)c3ccccc23)cc1    inactive
Cc1ccc(C(=O)Nc2ccc(-n3c(C)nc4c(cnn4-c4ccccc4)c3=O)cc2)cc1    inactive
O=S(=O)(Nc1ncccn1)c1ccc(-n2c(-c3ccc(Br)cc3)nc(-c3ccccc3)c2-c2ccccc2)cc1    inactive
O=c1oc2ccccc2cc1-c1csc(N=Nc2c(O)[nH]c3ccc(Br)cc23)n1    inactive
COc1ccc(C(C)=C(c2ccc(OCCCN(C)C)cc2)c2ccc(OCCCN(C)C)cc2)cc1    active
O=C(Nc1ccc(OCC(=O)c2ccccc2)cc1)Nc1ccc(Cl)c(C(F)(F)F)c1    inactive
Brc1ccc(/C=C/c2n(Cc3ccc4ccccc4c3)c3ccccc3[n+]2Cc2ccc3ccccc3c2)cc1    active
Cc1ccc(CSc2nc(Cl)c(C#N)c(-c3ccc(F)cc3)n2)cc1    inactive
Cc1ccc(-c2cc(-c3cc4ccccc4nc3Cl)[nH]c(=S)n2)cc1    inactive
CN1CCN(c2ccc(Nc3nc(NCCCNC(=O)C4CCCCC4)c4sccc4n3)cc2)CC1    inactive
COc1ccc(-c2ccc(SCC(=O)Nc3ccc(C#N)cc3)nn2)cc1    inactive
O=C1CCC(N2Cc3c(NCc4ccc(-c5ccccc5)cc4)cccc3C2=O)C(=O)N1 (stereo unspecified)    inactive
COc1ccc(-c2ccc(/C=N/NC(=O)c3[nH]c4ccc(Br)cc4c3-c3ccccc3)s2)cc1    inactive
Nc1nc(Nc2ccc(Cl)cc2)nn1Cc1cccc(Br)c1    inactive
CN1C/C(=C\c2ccc(O)cc2O)c2[o+]c3cc(O)ccc3cc2C1    inactive
Cn1cc(/C=N/Nc2ccnc3cc(Cl)ccc23)c2ccccc21    active
CC1(C)[C@@H](NCO)CC[C@]2(C)[C@H]3C(=O)C=C4[C@@H]5C[C@](C)(CO)CC[C@]5(C)CC[C@@]4(C)[C@]3(C)CC[C@@H]12    inactive
